Measured pEC50 of individual entries
- Assay target: human CLEC12A expressed on cells (human) (UniProt Q5QGZ9)
- Sequence (Q5QGZ9 whole entry): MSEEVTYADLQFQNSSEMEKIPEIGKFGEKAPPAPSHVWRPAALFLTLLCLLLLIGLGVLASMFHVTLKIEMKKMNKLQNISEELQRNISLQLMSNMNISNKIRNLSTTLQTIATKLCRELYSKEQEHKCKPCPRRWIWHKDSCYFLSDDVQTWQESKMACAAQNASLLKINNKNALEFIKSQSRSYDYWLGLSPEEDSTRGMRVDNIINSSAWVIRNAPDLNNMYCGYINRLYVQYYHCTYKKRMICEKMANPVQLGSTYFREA
- Test: flow cytometry, hCLEC12A+Ba/F3 cells
// returns pEC50 (minus log10 of molar concentration), number only

Binder | pEC50
AB0189 (bispecific antibody, part only; not given: Fc, unrelated binder arm, linkers, not shown: another chain or arm of the molecule; a dimerising Fc or GST; small tags and cut ends) scFv: DIKMTQSPSSLSASVGDRVTITCKASQDIYNYLSWFQQKPGKAPKPLIYRANILVSGVPSRFSGSGSGQDYTLTISSLQPEDIATYYCLQFDAFPFTFGCGTKLEIKGGGGSGGGGSGGGGSGGGGSEVQLVESGGGVVQPGGSLRLSCAASGFTFNAFGMHWVRQAPGKCLEWVAFISSGSTSIYYANTVKGRFTISRDNSKNTLYLQMNSLRAEDTAVYYCARDGYPTGGAMDYWGQGTSVTVSS | 8.89

Please find the next binder below.
Report pEC50 for AB0185 (bispecific antibody, part only; not given: Fc, unrelated binder arm, linkers, not shown: another chain or arm of the molecule; a dimerising Fc or GST; small tags and cut ends) scFv: DIQMTQSPSSLSASVGDRVTITCKASQDIYNYLSWFQQKPGKAPKPLIYRANILVSGVPSRFSGSGSGQDYTFTISSLQPEDIATYYCLQFDAFPFTFGCGTKLEIKGGGGSGGGGSGGGGSGGGGSEVQLVESGGGVVQPGGSLRLSCAASGFTFNSFGMHWVRQAPGKCLEWVAFISSGSTSIYYANTVKGRFTISRDNSKNTLYLQMNSLRAEDTAVYYCARDGYPTGGAMDYWGQGTSVTVSS
9.15
